Cited source for all entries: patent US8507540B2

- Tested on: CYP1A2, CYP2D6, CYP2C9, CYP3A4
- ASSAY_NAME: in vitro
- Type: in vitro ADME
- CONDITION_LABEL: human
RECORDED_METRIC: activity

Answer with activity of O=C1CC2CN(c3ccc(N4C[C@H](Cn5ccnn5)OC4=O)cc3F)CC2C1 (stereo partly shown) measured for CYP1A2, CYP2D6, CYP2C9, CYP3A4.
73.6 to 106%

* * *

- TEST_TARGET: CYP3A4 (Homo sapiens, UniProt P08684)
- Sequence (P08684 whole entry): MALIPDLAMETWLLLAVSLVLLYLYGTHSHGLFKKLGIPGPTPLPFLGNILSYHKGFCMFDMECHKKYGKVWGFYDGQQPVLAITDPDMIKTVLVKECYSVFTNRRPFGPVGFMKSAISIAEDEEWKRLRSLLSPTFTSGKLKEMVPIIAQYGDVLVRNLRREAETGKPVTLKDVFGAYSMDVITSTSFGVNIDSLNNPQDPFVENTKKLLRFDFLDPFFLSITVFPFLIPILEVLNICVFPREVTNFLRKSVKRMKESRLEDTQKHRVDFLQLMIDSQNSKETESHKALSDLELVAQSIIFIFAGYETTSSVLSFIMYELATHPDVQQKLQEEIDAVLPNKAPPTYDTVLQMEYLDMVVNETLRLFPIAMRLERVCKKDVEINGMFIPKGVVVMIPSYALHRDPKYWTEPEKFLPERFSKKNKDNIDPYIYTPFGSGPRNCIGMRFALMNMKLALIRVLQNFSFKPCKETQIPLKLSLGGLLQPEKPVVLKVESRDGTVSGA
- ASSAY_NAME: CYP450 remaining test (Vivid CYP450 Screening Kits)
Exercise: state measured activity for each of the molecules provided.
Express the result in % but write the number alone.

For the molecule O=C1CC2CN(c3ccc(N4C[C@H](Cn5ccnn5)OC4=O)cc3F)CC2C1 (some centres unmarked) [Example 4] , report activity.
106

For the molecule CC(=O)N1CCN(c2ccc(OCC3COC(Cn4ccnc4)(c4ccc(Cl)cc4Cl)O3)cc2)CC1 (centres unmarked) [ketoconazole, reference compound] , report activity.
2.3
